// pKd lookup, one value per entry
- targetUnderTest: human LILRB2-His (human, UniProt Q8N423 22-460)
- Sequence (Q8N423 other isoform, or with tags, fused parts or gaps): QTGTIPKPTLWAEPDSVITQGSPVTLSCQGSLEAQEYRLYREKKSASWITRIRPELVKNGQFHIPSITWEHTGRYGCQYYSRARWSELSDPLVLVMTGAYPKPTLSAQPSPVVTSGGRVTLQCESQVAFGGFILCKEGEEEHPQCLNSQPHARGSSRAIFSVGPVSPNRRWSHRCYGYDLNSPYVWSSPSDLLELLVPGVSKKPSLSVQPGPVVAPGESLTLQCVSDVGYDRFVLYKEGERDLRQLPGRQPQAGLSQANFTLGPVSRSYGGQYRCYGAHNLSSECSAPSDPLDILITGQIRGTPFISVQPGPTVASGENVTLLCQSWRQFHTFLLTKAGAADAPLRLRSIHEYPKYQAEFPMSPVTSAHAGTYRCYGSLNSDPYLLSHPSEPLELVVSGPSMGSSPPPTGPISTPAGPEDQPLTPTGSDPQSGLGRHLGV
- assayProtocol: SPR, Sierra Sensors MASS-2; antibody captured on anti-human Fc, LILRB2-His 65 to 0.27 nM, 1:1 Langmuir fit
A value of pKd is the negative decimal logarithm of a concentration given in moles per litre.

// below: answered binders
INSERT INTO assay_data (binder, numericresult) VALUES
  ('J-17 (antibody, human IgG4 S228P, kappa, V domains shown, Human IgG4 chimera of murine origin; also called J-17.h) VH: QIQLVQSGPELKKPGETVKISCKASGYTFTTYGLSWVKQTPGKGLKWMGWINTYSGVPTYTDDFKGRFAFSLETSASTAYLQINNLKNEDTATYFCARPYDFDQVGFAYWGQGTLVTVSA VL: SIVMTQTPKFLLVSAGDRVSITCKASQTVSSDVAWYQQKAGQSPKLLIYYASNRYTGVPDRFTGSGYGTDFTFTISTVQAEDLAVYFCQQDYSSPFTFGGGSKLEIKR', 8.55),
  ('J-19.h3 (antibody, human IgG4 S228P, kappa, V domains shown, Humanized, human IgG4 backbone) VH: QVTLKESGPSLVKPTQTLTLTCTFSGFSLNTYAMGVSWIRQPPGKALEWLASIWWNGNKYNNPSLKSRLTITKDTSKNQVVLKVTNMDPADTATYYCAHSRIIRFTDYVMDAWGQGTTVTVSS VL: DIVMTQSPSSLSASVGDTVTITCRASEDIYNDLAWYQQKPGKAPQLLLYNANSLHTGVPSRFSGSGSGTDYTLTISTLQPEDFATYYCQQYYDYPLTFGPGTKVHIKR', 8.71),
  ('J-19.h2 (antibody, human IgG4 S228P, kappa, V domains shown, Humanized, human IgG4 backbone) VH: QITLKESGPTLVKPTQTLTLTCTFSGFSLNTYAMGVSWIRQPPGKALEWLASIWWNGNKYNNPSLKSRLTVTKDTSKNQVVLTMTNMDPVDTATYYCAHSRIIRFTDYVMDAWGQGTLVTVSS VL: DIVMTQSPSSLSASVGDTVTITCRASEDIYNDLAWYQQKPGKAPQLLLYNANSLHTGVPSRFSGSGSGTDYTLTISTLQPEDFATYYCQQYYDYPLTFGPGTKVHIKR', 8.34);

[in] Can you look up the measured pKd of J-11 (antibody, human IgG4 S228P, kappa, V domains shown, Human IgG4 chimera of murine origin; also called J-11.h) VH: QVQLQQSGAELMKPGASVKLSCKATGYILTGYWIEWVKQRPGHGLEWIGEILPGSGSTNYNENFKGKATFTADTSSNTAYMQLSSLTTEDSAIYYCARAVLGYFDYWGQGTTLTVSS VL: DIVMTQSHKFMSTSVGDRVSITCKASQDVSTAVAWYQQKPGQSPKLLIYWASTRHTGVPDRFTGSGSGTDYTLTISSVQAEDLALYYCHQHYSTYTFGGGTKLEIKR for me?
[out] 8.61

[in] Can you look up the measured pKd of J-19 (antibody, human IgG4 S228P, kappa, V domains shown, Human IgG4 chimera from a rat immunization; also called J-19.h) VH: QVTLKESGPGILQPSHTLSLTCSFSGFSLNTYAMGVSWIRQPSGKGLEWLASIWWNGNKYNNPSLKSRLTVSKDTSNNQAFLKVTSVDTADTATYYCAHSRIIRFTDYVMDAWGQGASVTVSS VL: DIQMTQSPASLSTFLGEPVTIECRASEDIYNDLAWYQQKPGKSPQLLIYNANSLHTGVPSRFSGSGSGTQYSLKINSLQSEDVASYFCQQYYDYPLTFGSGTKLEIKR for me?
[out] 8.58

[in] Can you look up the measured pKd of J-19.h4 (antibody, human IgG4 S228P, kappa, V domains shown, Humanized, human IgG4 backbone) VH: QVTLKESGPALVKPTHTLTLTCTFSGFSLNTYAMGVSWIRQPPGKALEWLASIWWNGNKYNNPSLKSRLTISKDTSKNQVVLTMTNMDPEDTATFYCAHSRIIRFTDYVMDAWGRGTTVTVSS VL: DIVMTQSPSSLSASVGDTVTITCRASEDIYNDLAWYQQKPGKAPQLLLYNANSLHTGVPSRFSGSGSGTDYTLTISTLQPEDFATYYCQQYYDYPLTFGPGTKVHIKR for me?
[out] 8.63

[in] Can you look up the measured pKd of J-19.h1 (antibody, human IgG4 S228P, kappa, V domains shown, Humanized, human IgG4 backbone) VH: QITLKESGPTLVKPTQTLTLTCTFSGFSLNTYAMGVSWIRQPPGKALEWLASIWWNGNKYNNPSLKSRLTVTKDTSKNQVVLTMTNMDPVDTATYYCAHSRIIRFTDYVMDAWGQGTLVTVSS VL: DIQMTQSPSSLSTSVGDRVTITCRASEDIYNDLAWYQQKPGKAPKLLIYNANSLHTGVASRFSGSGSGTDFTFTISSLQPEDVATYFCQQYYDYPLTFGQGTKLEIKR for me?
[out] 8.56

Taken from patent US20200339690A1.
